Cardiomyocyte viability, loss values by entry
tested on: iPSc differentiated Cardiomyocytes; assay: MTT viability of cardiac module in 4-organ system; conditions: 4-organ co-culture under flow, serum-free medium, 48 h drug treatment, day 7, vs control; DOX 5 μM, ATR 100 μM, VPA 2 mM, APAP 5 mM, AMAP 5 mM
The reply should contain only the number, in % loss.

CC(=O)Nc1cccc(O)c1 [N-Acetyl-m-aminophenol] = 28

Okay, now this molecule:
State its Cardiomyocyte viability, loss on iPSc differentiated Cardiomyocytes: COc1cccc2c1C(=O)c1c(O)c3c(c(O)c1C2=O)C[C@@](O)(C(=O)CO)C[C@@H]3O[C@H]1C[C@H](N)[C@H](O)[C@H](C)O1 [Doxorubicin]
65
